System: RAT COLON
assay-name: Rat colon contraction
Type: cell-based
condition-set: Rattus norvegicus
Field: EC50. Provide a value for each of the compounds that follow.
API: value field is a number in nM; no unit string.

Q: State, for RAT COLON, measured EC50 of the compound listed here: CCCCC[C@H](O)/C=C/[C@@H]1[C@@H](C/C=C\CCCC(=O)O)[C@@H](O)C[C@H]1O [PGF2α, prostaglandin F2α, reference compound]
A: 130

Q: State, for RAT COLON, measured EC50 of the compound listed here: CCCCC[C@H](O)/C=C/[C@@H]1[C@@H](C/C=C\CCCC(=O)OC(CO[N+](=O)[O-])CO[N+](=O)[O-])[C@@H](O)C[C@H]1O
A: 175
